Cited source: patent US20170298096A1

# system.under.test: T1, His-tagged P3028 peptide (PGE73) (human)
# T1 construct: albumin-derived peptide, in solution at 0.5 ug/mL; not shown: His-tag
# T1 peptide: VFDEFKPLVEEPQNLIK
# experiment.notes: PEPSCAN ELISA, peptide on card
observable: RAMPO Score
Form: value (number only, do not type unit).

Previously resolved entries follow.
INSERT INTO assay_data (binder, result) VALUES
  ('KKLDTFFVKLSLHTER [SEQ ID NO: 364 KKLDTFFVKLSLHTER]', 1050),
  ('KKEDTFFVKLSLFTER [SEQ ID NO: 285 KKEDTFFVKLSLFTER]', 528),
  ('HKLDTFFVKLSLFTER [SEQ ID NO: 272 HKLDTFFVKLSLFTER]', 428),
  ('KKLDCFFVKLSLFTER [SEQ ID NO: 304 KKLDCFFVKLSLFTER]', 449),
  ('LKLDTFFVKLSLFTER [SEQ ID NO: 274 LKLDTFFVKLSLFTER]', 449);

query: Report measured RAMPO Score; entry is KKLDTFFVKLSLFSER [SEQ ID NO: 384 KKLDTFFVKLSLFSER]
result: 369

query: Report measured RAMPO Score; entry is KKLDTFTVKLSLFTER [SEQ ID NO: 324 KKLDTFTVKLSLFTER]
result: 517

query: Report measured RAMPO Score; entry is KKLDTFFVKLSLFGER [SEQ ID NO: 377 KKLDTFFVKLSLFGER]
result: 343

query: Report measured RAMPO Score; entry is KKLDTFSVKLSLFTER [SEQ ID NO: 323 KKLDTFSVKLSLFTER]
result: 700

query: Report measured RAMPO Score; entry is KKLDTFFVKLSLLTER [SEQ ID NO: 366 KKLDTFFVKLSLLTER]
result: 448
